Below, each entry is listed alongside its reported normalized growth.
# experiment_notes: chemical genetic growth profiling, strain panel (AID 1159580);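 note: tested at 20 µM; growth read once vehicle control cultures reached saturation at 30 °C; 1 = growth at the plate median or of vehicle wells; lower values mean less growth of the strain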
# applied_conditions: S. cerevisiae deletion strains, growth OD, locus YOR290C, strain snf2, stronger effect = lower value
The whole screen tested about 5,500 compounds, of which about 2,000 (36%) were called active. Another 18% or so got no clear call; they are omitted. Some of the results follow.
Keep the answer to the number alone.

Below are worked cases with known answers.
COc1cc2c(cc1OC)C1Cc3ccc(OC)c(OC)c3CN1CC2 (configuration not stated) ... 0.994
Cc1c(Cl)cccc1Nc1ccccc1C(=O)O ... 0.716
O=C1CC2OCC=C3CN4CC[C@]56c7ccccc7N1C5[C@H]2[C@H]3CC46 (some centres not stated) ... 1.02
CC(C)C(C)/C=C/C(C)[C@H]1CCC2C3=CCC4CC(=O)CC[C@]4(C)C3CC[C@@]21C (some centres not stated) ... 0.936
CC(C)(Oc1ccc(C2CC2(Cl)Cl)cc1)C(=O)O (configuration not stated) ... 1.01
O=C1NC(=O)C(=O)C(=O)N1 ... 0.983

Turning to the following compound.
Could you share which normalized growth value was measured for `Cc1cccc(Nc2ccccc2C(=O)O)c1C` ?
0.919

----------
We begin with a simple list: items and their reported normalized growth.
# experiment_notes: chemical genetic growth profiling, strain panel (AID 1159580);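 note: tested at 20 µM; growth read once vehicle control cultures reached saturation at 30 °C; 1 = growth at the plate median or of vehicle wells; lower values mean less growth of the strain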
# applied_conditions: S. cerevisiae deletion strains, growth OD, locus YNL161W, strain CBK1, stronger effect = lower value
In all, about 5,500 compounds went through this assay and about 2,000 (36%) were called active. Another 18% or so got no clear call; they are omitted. Some of the results follow.
Just the number.

Consider the following illustrative entries.
CCc1ccn2cc(Nc3ccccc3Cl)nc2c1 ... 0.98
ClC1=C(C=Nc2ccc(Cl)cc2)CSc2ccc(Cl)cc21 ... 0.929
O=[N+]([O-])c1ccc2oc(C(O)c3ccc(-c4ccccc4)cc3)cc2c1 (centres undefined) ... 0.984

Which measured normalized growth value corresponds to `CC1(C)OC(=O)C(=Cc2cccn2-c2ccc(C(F)(F)F)cc2)C(=O)O1` ?
1.03

Tell me the measured normalized growth of `N#CC(C#N)=Cc1ccc(-c2ccccc2C(F)(F)F)o1` , please.
0.941

----------
# experiment_notes: chemical genetic growth profiling, strain panel (AID 1159580);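 note: tested at 20 µM; growth read once vehicle control cultures reached saturation at 30 °C; 1 = growth at the plate median or of vehicle wells; lower values mean less growth of the strain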
# applied_conditions: S. cerevisiae deletion strains, growth OD, locus YLR058C, strain SHM2 (second series), stronger effect = lower value
The campaign covered roughly 5,500 compounds. About 2,000 (36%) were called active. Not shown: some 18% with an inconclusive outcome. The list shows a part of the results.
Entries and their measured normalized growth follow.
Reply with the value as a number alone.

Study these solved cases before continuing.
Nc1cc2c(cc1Cl)C(=O)NC2=O ... 1
Cc1ccc(NS(C)(=O)=O)cc1N=Cc1ccc(Cl)c(Cl)c1 ... 1.02
CSC(=NS(=O)(=O)c1ccccc1)SC ... 0.987
CC12NC(=O)NC1(C)NC(=O)N2 (stereo not drawn) ... 1.02
Cc1onc(-c2c(F)cccc2Cl)c1C(=O)Oc1ccccc1 ... 0.973

Okay, next one:
Look up normalized growth: `CC(C)n1cc(C#N)c(=O)n(Cc2ccccc2)c1=O`
1

----------
# experiment_notes: chemical genetic growth profiling, strain panel (AID 1159580);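 note: tested at 20 µM; growth read once vehicle control cultures reached saturation at 30 °C; 1 = growth at the plate median or of vehicle wells; lower values mean less growth of the strain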
# applied_conditions: S. cerevisiae deletion strains, growth OD, locus YNL153C, strain GIM3, stronger effect = lower value
Among all 5,500 compounds or so, about 2,000 (36%) were called active. Roughly 18% stayed inconclusive and do not appear here. The list shows a part of the results.
Quick rule for you: normalized growth under 1 gets label 1, anything else gets label 0.

Completed entries (count: 10):
CC1OC1P(=O)(O)O (stereo unspecified) ... label 0
Cc1ccc([N+](=O)[O-])cc1S(=O)(=O)N(C)C ... label 1
C#CCCCCCCCCCCCC(=O)CC(O)COC(C)=O (stereo unspecified) ... label 1
C=C1CCC(C2CC(=O)OC2=O)C(=O)CCC2C1CC2(C)C (stereo unspecified) ... label 0
O=C(Cn1ccnc1[N+](=O)[O-])NCCO ... label 1
Nc1ccc(C(=O)/C(=C\c2cccc([N+](=O)[O-])c2)C(=O)c2ccc(-c3ccccc3)cc2)cc1 ... label 1
Cc1cccc(Nc2ccccc2C(=O)O)c1C ... label 1
CCCN(CCC)C1CCc2cccc(O)c2C1 (stereo unspecified) ... label 0
C=C1C(=O)O[C@@H]2C3O[C@]3(C)CC/C=C(\C)CC[C@@H]12 (stereo partly specified) ... label 1
C=C1C(=O)OC2CC1C(OC(C)=O)C/C(C)=C/CC/C(C)=C/CC[C@]2(C)O (stereo partly specified) ... label 0

Consider now this further compound.
Record `COc1ccc(C(C)=O)cc1CSC(=NS(=O)(=O)c1ccccc1)Nc1cccc(F)c1` : is its normalized growth strictly below 1?
label 0
